# Measurement target: JUNB (Homo sapiens, UniProt P17275)
# Construct: made in house
# Assay explanation: Direct-binding FRET assay
# Cond: Kd, 23°C; C-terminal rhodamine design; mean or single
# Experimental: The direct binding assay was performed manually in 384-well plates and is similar to a previously described assay. Wells were filled with 20 μL of 1 mM TCEP-HCl. […] Briefly, the Kd of the designed peptide homodimer was experimentally determined and used with previously determined target homodimer Kd values to determine the heterodimer Kd. […] A minimum 15% change in the donor fluorescence upon titrating the acceptor peptide from 0 to 1000 nM was required for a fit to be attempted. […]
pKd: −log10 of the molar value. Where no end group is shown, it is not given here.

# Sequence entry, pKd
rows = [
    ("SIAATLEKEEANLEKMNKKLAAEIESLLKEKDKLESVLNYHE [JUN-d1]", 8.08),
]

* * *

# Lookup of reported pKd keyed by entry
# Measurement target: JUNB (Homo sapiens)
# Construct: made in house
# Assay explanation: Direct-binding FRET assay
# Cond: 23°C; C-terminal rhodamine design; mean or single; read-out: Kd
# Experimental: The direct binding assay was performed manually in 384-well plates and is similar to a previously described assay. Wells were filled with 20 μL of 1 mM TCEP-HCl. […] Briefly, the Kd of the designed peptide homodimer was experimentally determined and used with previously determined target homodimer Kd values to determine the heterodimer Kd. […] A minimum 15% change in the donor fluorescence upon titrating the acceptor peptide from 0 to 1000 nM was required for a fit to be attempted. […]
pKd: −log10 of the molar value. Where no end group is shown, it is not given here.

# Sequence entry, Measurement target, pKd
rows = [
    ("EREAQLENRVAHLKEKNQELKAQNLHLKEALSEAQNRNQELKNDA [XBP1-d1]", "JUNB (Homo sapiens)", "< 6.00"),
    ("NQIKTLRTRLSKLRKDNLQLEKDIANLERKAKDLRAEKEQLEYEL [ATF4-d1]", "JUNB (Homo sapiens)", "< 6.00"),
    ("KRIAYLRQRIAELRNENHVLESRIQRMEKEKDALQQDRDHLEYEL [ATF5-d1]", "JUNB (Homo sapiens)", "< 6.00"),
]

* * *

# Measurement target: NFE2L2 (Homo sapiens, UniProt Q16236)
# Construct: made in house
# Assay explanation: Direct-binding FRET assay
# Cond: 4°C; C-terminal rhodamine design; mean or single; read-out: Kd
pKd: −log10 of the molar value. Where no end group is shown, it is not given here.
Readout name: pKd

# Sequence entry, Measurement target, Result
measured = [
    ("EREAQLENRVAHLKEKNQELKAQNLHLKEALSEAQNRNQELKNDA [XBP1-d1]", "NFE2L2 (Homo sapiens, UniProt Q16236)", "< 6.00"),
    ("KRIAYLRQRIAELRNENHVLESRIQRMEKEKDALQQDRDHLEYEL [ATF5-d1]", "NFE2L2 (Homo sapiens, UniProt Q16236)", "< 5.30"),
]

* * *

# Measurement target: ATF5 (Homo sapiens, UniProt Q9Y2D1)
# Construct: made in house
# Assay explanation: Direct-binding FRET assay
# Cond: 37°C; C-terminal rhodamine design; mean or single; read-out: Kd
Where no end group is shown, it is not given here.
Documented Kd across a set of sequences

# Sequence entry, Measurement target, Kd
data = [
    ("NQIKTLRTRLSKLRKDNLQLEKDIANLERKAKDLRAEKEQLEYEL [ATF4-d1]", "ATF5 (Homo sapiens, UniProt Q9Y2D1)", "> 5000 nM"),
    ("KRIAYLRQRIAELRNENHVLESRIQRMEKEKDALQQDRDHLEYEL [ATF5-d1]", "ATF5 (Homo sapiens, UniProt Q9Y2D1)", "1680 nM"),
    ("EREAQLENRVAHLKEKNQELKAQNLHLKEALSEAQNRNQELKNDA [XBP1-d1]", "ATF5 (Homo sapiens, UniProt Q9Y2D1)", "> 1000 nM"),
]

* * *

Measured Kd of individual entries
# Measurement target: NFE2L3 (Homo sapiens)
# Construct: made in house
# Assay explanation: Direct-binding FRET assay
# Cond: 4°C; C-terminal rhodamine design; mean or single; read-out: Kd
Where no end group is shown, it is not given here.

# Sequence entry, Kd
data = [
    ("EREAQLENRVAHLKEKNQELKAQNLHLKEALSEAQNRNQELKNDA [XBP1-d1]", "> 1000 nM"),
    ("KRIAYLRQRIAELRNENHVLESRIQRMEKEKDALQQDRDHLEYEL [ATF5-d1]", "> 5000 nM"),
]

* * *

# Measurement target: DBP (Homo sapiens)
# Construct: made in house
# Sequence (Q10586 255-318 limits assumed): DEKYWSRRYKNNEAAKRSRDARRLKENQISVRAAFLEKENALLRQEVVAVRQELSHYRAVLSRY
# Assay explanation: Direct-binding FRET assay
# Cond: Kd, 4°C; N-terminal rhodamine design; mean or single
pKd: −log10 of the molar value. Where no end group is shown, it is not given here.

# Sequence entry, pKd
rows = [
    ("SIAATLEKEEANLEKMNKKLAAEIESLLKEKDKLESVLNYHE [JUN-d1]", "< 6.00"),
]

* * *

# Measurement target: NFIL3 (Homo sapiens)
# Construct: made in house
# Sequence (Q16649 73-136 limits assumed): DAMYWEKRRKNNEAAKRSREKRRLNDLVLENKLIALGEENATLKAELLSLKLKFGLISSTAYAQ
# Assay explanation: Direct-binding FRET assay
# Cond: 37°C; C-terminal rhodamine design; mean or single; read-out: Kd
Where no end group is shown, it is not given here.
This section presents sequences with their documented Kd values.

# Sequence entry, Kd
rows = [
    ("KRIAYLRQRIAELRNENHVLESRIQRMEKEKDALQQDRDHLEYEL [ATF5-d1]", "> 1 µM"),
    ("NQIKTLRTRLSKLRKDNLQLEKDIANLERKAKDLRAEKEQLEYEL [ATF4-d1]", "> 5 µM"),
    ("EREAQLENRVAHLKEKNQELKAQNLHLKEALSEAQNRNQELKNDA [XBP1-d1]", "> 1 µM"),
]

* * *

# Measurement target: BATF3 (Homo sapiens)
# Construct: made in house
# Sequence (Q9NR55 35-98 limits assumed): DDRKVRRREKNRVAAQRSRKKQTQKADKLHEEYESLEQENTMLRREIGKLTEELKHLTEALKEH
# Assay explanation: Direct-binding FRET assay
# Cond: Kd, 23°C; C-terminal rhodamine design; mean or single
Where no end group is shown, it is not given here.

# Sequence entry, Kd
measured = [
    ("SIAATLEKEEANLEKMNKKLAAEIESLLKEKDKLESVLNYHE [JUN-d1]", "> 5 µM"),
]

* * *

# Measurement target: NFE2L2 (Homo sapiens, UniProt Q16236)
# Construct: made in house
# Sequence (Q16236 497-560 limits assumed): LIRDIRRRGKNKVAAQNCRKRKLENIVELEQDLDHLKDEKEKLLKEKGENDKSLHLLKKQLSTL
# Assay explanation: Direct-binding FRET assay
# Cond: Kd, 4°C; C-terminal fluorescein design as donor, TAMRA target titrated
Where no end group is shown, it is not given here.

# Sequence entry, Kd
data = [
    ("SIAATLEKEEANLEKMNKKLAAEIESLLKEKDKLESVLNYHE [JUN-d1]", "> 1000 nM"),
]

* * *

# Measurement target: BATF (Homo sapiens, UniProt Q16520)
# Construct: made in house
# Sequence (Q16520 26-89 limits assumed): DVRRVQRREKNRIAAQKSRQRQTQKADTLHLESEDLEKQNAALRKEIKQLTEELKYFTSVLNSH
# Assay explanation: Direct-binding FRET assay
# Cond: Kd, 4°C; C-terminal fluorescein design as donor, TAMRA target titrated
pKd: −log10 of the molar value. Where no end group is shown, it is not given here.

# Sequence entry, pKd
data = [
    ("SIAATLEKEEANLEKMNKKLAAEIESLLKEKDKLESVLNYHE [JUN-d1]", "< 6.00"),
]

* * *

// Kd lookup, one value per entry
# Measurement target: BATF (Homo sapiens, UniProt Q16520)
# Construct: made in house
# Assay explanation: Direct-binding FRET assay
# Cond: 37°C; C-terminal rhodamine design; mean or single; read-out: Kd
Where no end group is shown, it is not given here.

# Sequence entry, Kd
measured = [
    ("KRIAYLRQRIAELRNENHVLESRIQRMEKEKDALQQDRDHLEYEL [ATF5-d1]", "> 5 µM"),
    ("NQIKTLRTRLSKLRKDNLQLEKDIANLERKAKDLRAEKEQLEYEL [ATF4-d1]", "> 1 µM"),
    ("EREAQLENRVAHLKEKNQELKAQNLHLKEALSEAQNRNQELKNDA [XBP1-d1]", "> 1 µM"),
]

* * *

# Measurement target: JUN (Homo sapiens)
# Sequence (P05412 252-315 limits assumed): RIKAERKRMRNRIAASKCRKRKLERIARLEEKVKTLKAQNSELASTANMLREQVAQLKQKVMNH
# Assay explanation: Direct-binding FRET assay
# Design: made in house
# Cond: Kd, 4°C; C-terminal fluorescein design as donor, TAMRA target titrated
Where no end group is shown, it is not given here.

# Sequence entry, Kd
data = [
    ("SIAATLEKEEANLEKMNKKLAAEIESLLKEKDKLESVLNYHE [JUN-d1]", "2.1 nM"),
]

* * *

# Measurement target: BATF2 (Homo sapiens, UniProt Q8N1L9)
# Construct: made in house
# Sequence (Q8N1L9 17-80 limits assumed): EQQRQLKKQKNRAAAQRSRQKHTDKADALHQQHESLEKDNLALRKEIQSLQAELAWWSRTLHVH
# Assay explanation: Direct-binding FRET assay
# Cond: 37°C; C-terminal rhodamine design; mean or single; read-out: Kd
Where no end group is shown, it is not given here.
Property: Kd; scope: individual sequences
Readout name: Kd

# Sequence entry, Readout name, Result
rows = [
    ("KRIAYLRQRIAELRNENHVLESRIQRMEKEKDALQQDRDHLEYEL [ATF5-d1]", "Kd", "> 1000 nM"),
    ("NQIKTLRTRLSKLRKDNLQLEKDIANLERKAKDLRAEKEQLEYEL [ATF4-d1]", "Kd", "> 1000 nM"),
    ("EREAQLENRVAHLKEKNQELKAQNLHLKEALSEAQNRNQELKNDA [XBP1-d1]", "Kd", "> 1000 nM"),
]
